target_of_assay: papain (Carica papaya)
Construct: purchased Sigma Chem. Co
Sequence (P00784 134-345): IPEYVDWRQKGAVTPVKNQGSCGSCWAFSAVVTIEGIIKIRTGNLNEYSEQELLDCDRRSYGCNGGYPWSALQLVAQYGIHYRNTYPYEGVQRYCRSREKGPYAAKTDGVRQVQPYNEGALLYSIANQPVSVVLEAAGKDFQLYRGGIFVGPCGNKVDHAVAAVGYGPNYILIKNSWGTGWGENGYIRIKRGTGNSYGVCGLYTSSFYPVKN
method_summary: Papain inhibitory activity (milk casein digestion)
Format: biochemical
measurement_conditions: papain 80 μg/ml 0.5 ml, cysteine, pH 6.8, 1% milk casein, 40° C., 10 minutes
readout_kind: ID50 (amount of inhibitor for 50% inhibition)

{"compound": "Cc1cccc2c(COC(=O)[C@@H]3O[C@H]3C(=O)OCc3ccc(C)c4c(C)cccc34)ccc(C)c12 (relative stereo)", "result": "1.58 γ"}
{"compound": "CCOC(=O)C1OC1C(=O)N[C@@H](CCC(N)=O)C(=O)OCc1ccccc1 (stereo partly shown)", "result": "12.50 γ"}
{"compound": "CC1(C)C2CCC1(C)C(OC(=O)C1OC1C(=O)O)C2 (stereo not shown) [EP-54, bornyl potassium epoxysuccinate]", "result": "0.09 γ"}
{"compound": "CCOC(=O)[C@H](Cc1ccccc1)NC(=O)C1OC1C(=O)OCc1ccccc1 (stereo partly shown)", "result": "0.27 γ"}
{"compound": "O=C(O)[C@@H]1O[C@H]1C(=O)OCc1cccs1 (relative stereo) [EP-80, 2'-thenyl potassium epoxysuccinate]", "result": "0.32 γ"}
{"compound": "O=C(O)[C@H]1O[C@@H]1C(=O)OCC=Cc1ccccc1 (relative stereo)", "result": "0.71 γ"}
{"compound": "O=C(OCc1ccc(Br)c(Cl)c1)[C@H]1O[C@@H]1C(=O)OCc1ccc(Br)c(Cl)c1 (relative stereo)", "result": "2.90 γ"}
{"compound": "O=C(O)[C@H]1O[C@@H]1C(=O)OCc1ccc(Br)c(Cl)c1 (relative stereo)", "result": "0.12 γ"}
{"compound": "O=C(OCCCCC1CCCCC1)[C@@H]1O[C@H]1C(=O)OCCCCC1CCCCC1 (relative stereo) [EP-67, di-4-cyclohexanebutyl epoxysuccinate]", "result": "93.28 γ"}
{"compound": "O=C(O)C1OC1C(=O)OC1CCCC(Br)C1 (stereo not shown)", "result": "0.06 γ"}
{"compound": "O=CNCCCC[C@H](NC(=O)C1OC1C(=O)OCc1ccccc1)C(=O)OCc1ccccc1 (stereo partly shown)", "result": "5.80 γ"}
{"compound": "O=C(OCc1cccc2ccccc12)[C@@H]1O[C@H]1C(=O)OCc1cccc2ccccc12 (relative stereo) [EP-81, di-1'-naphthylmethyl epoxysuccinate]", "result": "1.30 γ"}
{"compound": "CCCCOC(=O)[C@H]1O[C@@H]1C(=O)O (relative stereo) [EP-142, n-butyl potassium epoxysuccinate]", "result": "0.29 γ"}
{"compound": "CC1CCC(OC(=O)C2OC2C(=O)O)C1 (stereo not shown)", "result": "0.09 γ"}
{"compound": "CC(C)C[C@H](NC(=O)C1OC1C(=O)OC1CCCC1Br)C(=O)OCc1ccccc1 (stereo partly shown)", "result": "0.13 γ"}
{"compound": "CCOC(=O)C1OC1C(=O)N[C@@H](CC(=O)OCc1ccccc1)C(=O)OCc1ccccc1 (stereo partly shown)", "result": "20.50 γ"}

Ref: patent US4393228A
